assay: IUF_NPC4_neurite_length_120hr: Leibniz Research Institute for Environmental Medicine (IUF) 120-hour Neuronal Morphology Assay for Neurite Length (NPC4) (AID 2284302)
Active and inactive are the calls of the source. How the source made its calls: active means hit-call score of the fitted dose curve at least 0.9, where 1 is the maximum; inactive means score below 0.9.
Field 'call' accepts active, inactive

Answered cases to consult:
# compound, group
measured = [
    ("CC(C)N(C(=O)COc1nnc(C(F)(F)F)s1)c1ccc(F)cc1", "inactive"),
    ("CCC(C)(C)C(=O)OC1=C(c2ccc(Cl)cc2Cl)C(=O)OC12CCCCC2", "inactive"),
    ("CNC(=O)CSP(=S)(OC)OC", "inactive"),
    ("O=C(O)C(F)(F)C(F)(F)C(F)(F)C(F)(F)C(F)(F)C(F)(F)C(F)(F)F", "inactive"),
    ("COP(=O)(OC)OC=C(Cl)Cl", "active"),
]

# outcome recorded in this test, key = `O=C(O)COc1ccc(Cl)cc1Cl`
inactive

Same for O=S1OCC2C(CO1)C1(Cl)C(Cl)=C(Cl)C2(Cl)C1(Cl)Cl (stereo not given)
inactive

And CC1(C)C(C=C(Cl)Cl)C1C(=O)OC(C#N)c1ccc(F)c(Oc2ccccc2)c1 (stereo not given) ?
inactive

Another compound to look at: `COP(=S)(OC)Oc1ccc([N+](=O)[O-])cc1`
inactive

Try this compound too: `O=[N+]([O-])/N=C1\NCCN1Cc1ccc(Cl)nc1`
inactive

* * *

tested-on: X-box-binding protein 1 (Homo sapiens)
assay: ATG_Xbp1_CIS: Attagene CIS-FACTORIAL HepG2 Assay for human X-box Binding Protein 1 (XBP1) (AID 2282972)
assay-conditions: HepG2 XBP1 cis-element reporter, Attagene multiplex; actives raise or lower the signal
Activity calls are given as the source filed them. The calls were made as follows: active = hit-call score of the fitted dose curve at least 0.9, where 1 is the maximum; inactive = score below 0.9.
Select the correct class. Options are 1 for active, 0 for inactive and nothing else.

Record excerpt, results attached:
# molecule, group
rows = [
    ("Cc1cc(C)nc(NC(=O)NS(=O)(=O)c2ccccc2C(=O)OC2COC2)n1", 0),
    ("N#Cc1c(Cl)c(Cl)c(Cl)c(C#N)c1Cl", 0),
    ("C#CCN1C(=O)COc2cc(F)c(N3C(=O)C4=C(CCCC4)C3=O)cc21", 0),
    ("N#CN", 0),
    ("Cc1[nH]c(=O)n(C(C)(C)C)c(=O)c1Cl", 1),
    ("O=C(O)COc1ccc(Cl)cc1Cl", 0),
]

How was `O=C(Nc1ccccc1)Nc1cnns1` classified in this test?
1

Another molecule: `COP(=S)(OC)Oc1ccc([N+](=O)[O-])cc1`
0

// query: `CCc1ccc(C(=O)NN(C(=O)c2cc(C)cc(C)c2)C(C)(C)C)cc1`
0

Moving on to `CC(C)OC(=O)Nc1cccc(Cl)c1`
0

Moving on to the next molecule: CCC(C)Nc1c([N+](=O)[O-])cc(C(C)(C)C)cc1[N+](=O)[O-] (configuration not stated)
0

Same question for `CCOc1nc(NC)nc(NC(=O)NS(=O)(=O)c2ccccc2C(=O)OC)n1` please.
0

And for `COC(=O)c1ccccc1S(=O)(=O)NC(=O)Nc1nc(C)nc(OC)n1` ?
0

Also check O=C(NC(=O)c1c(F)cccc1F)Nc1ccc(OC(F)(F)C(F)OC(F)(F)F)c(Cl)c1 (configuration not stated)
0

Then what about the molecule `OCCOc1ccccc1` ?
0

Do the same for `COP(=S)(OC)Oc1ccc(SC)c(C)c1` please
0

Similarly, CCC(C)(NC(=O)c1cc(Cl)c(C)c(Cl)c1)C(=O)CCl (configuration not stated) ?
0

Another molecule: CC[C@H](C)[C@H]1O[C@]2(C=C[C@@H]1C)C[C@@H]1C[C@@H](C/C=C(\C)[C@@H](O[C@H]3C[C@H](OC)[C@@H](O[C@H]4C[C@H](OC)[C@@H](O)[C@H](C)O4)[C@H](C)O3)[C@@H](C)/C=C/C=C3\CO[C@@H]4[C@H](O)C(C)=C[C@@H](C(=O)O1)[C@]34O)O2 (tested in a mixture with another compound)
0

Next record, please: `O=S(=O)(O)C(F)(F)C(F)(F)C(F)(F)C(F)(F)C(F)(F)C(F)(F)C(F)(F)C(F)(F)F`
0

Further, for `CNC(=O)Oc1cccc(N=CN(C)C)c1` ?
1

Entry to check: `CNC(=O)/C=C(\C)OP(=O)(OC)OC`
0

And the next one, CC(C)(C)C(O)/C(=C\c1ccc(Cl)cc1Cl)n1cncn1 (configuration not stated) ?
0
